# Tested system: SARS-CoV-2 Omicron VOC spike (S) protein (SARS-CoV-2 (Omicron variant)) (UniProt P0DTC2)
# Assay info: ELONA (direct, immobilized protein)
Measured quantity: Kd (nM)
Give just the number in nM; leave the unit off.

Problem: Please look at this sequence and report its Kd: CTGGCCTCACTGGATACTCTAAGACTATTGGTCAAGTTTGCCTTGTCAAGGCTATTGGTCAAGGCAAGGCTGGCCAACCCATGGGTGGAGTTTAGCCAG [Omicron Apt (Bio)]
Result: 32
